- Subject Of Test: Tyrosine-protein kinase Blk (Homo sapiens)
- Condition Label: at 1 µM;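 note: mean percent inhibition of BLK kinase activity, from GSK PKIS kinase inhibitor set profiling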

Molecule Smiles	Subject Of Test	inhibition / %
O=C(Nc1ccc(Oc2ccc3[nH]c(NC(=O)c4ccco4)nc3c2)cc1)Nc1cc(C(F)(F)F)ccc1F	Tyrosine-protein kinase Blk (Homo sapiens)	1.7
COC(=O)Nc1nc2cc(Oc3ccc(NC(=O)Nc4cccc(Br)c4)cc3)ccc2[nH]1	Tyrosine-protein kinase Blk (Homo sapiens)	2.8
NS(=O)(=O)c1ccc(NC=C2C(=O)Nc3ccc4ncsc4c32)cc1	Tyrosine-protein kinase Blk (Homo sapiens)	58.3
CCS(=O)(=O)c1ccc(OC)c(Nc2ncc(-c3cccc(OC)c3)o2)c1	Tyrosine-protein kinase Blk (Homo sapiens)	64.3
COc1cc2ncnc(Nc3ccc4c(cnn4Cc4ccccc4)c3)c2cc1OC	Tyrosine-protein kinase Blk (Homo sapiens)	60.8
Cc1nc(-c2ccccc2)n2nc(NCCCN3CCOCC3)ncc12	Tyrosine-protein kinase Blk (Homo sapiens)	4.14
Cc1cc(O)cc(C)c1/C=C/c1cncc(C(=O)N(C)C)c1	Tyrosine-protein kinase Blk (Homo sapiens)	3.78
CN(C)c1cc2c(Nc3ccc4c(cnn4Cc4ccccc4)c3)ncnc2cn1	Tyrosine-protein kinase Blk (Homo sapiens)	22.6
COc1ccc(-c2nn3ncccc3c2-c2ccnc(Nc3cccc(C(F)(F)F)c3)n2)cc1	Tyrosine-protein kinase Blk (Homo sapiens)	7.74
CS(=O)(=O)Nc1cccc(-c2ccc3c(NC(=O)C4CC4)n[nH]c3c2)c1	Tyrosine-protein kinase Blk (Homo sapiens)	4.51
CS(=O)(=O)CCNCc1nc(-c2ccc3ncnc(Nc4ccc(OCc5cccc(C(F)(F)F)c5)cc4)c3c2)cs1	Tyrosine-protein kinase Blk (Homo sapiens)	4.48
Nc1nccc(-c2c(-c3ccc(F)cc3)ncn2CCCN2CCOCC2)n1	Tyrosine-protein kinase Blk (Homo sapiens)	5.42
[O-][S+]1CCN(Cc2ccc(-c3ccc4ncnc(Nc5ccc(OCc6ccccc6)c(Cl)c5)c4c3)o2)CC1	Tyrosine-protein kinase Blk (Homo sapiens)	6.7
O=S(=O)(CCOCc1ccc(-c2ccc3ncnc(Nc4ccc(OCc5cccc(F)c5)c(Cl)c4)c3c2)o1)c1ccccc1	Tyrosine-protein kinase Blk (Homo sapiens)	1.68
CN(C)CCCn1c(-c2nonc2N)nc2cnccc21	Tyrosine-protein kinase Blk (Homo sapiens)	3.44
CCOc1nccc2c1nc(-c1nonc1N)n2CC	Tyrosine-protein kinase Blk (Homo sapiens)	2.55
Cc1ccc2c(c1)/C(=N/Nc1ccc(S(N)(=O)=O)cc1)C(=O)N2	Tyrosine-protein kinase Blk (Homo sapiens)	11.2
OCc1ccc(-c2nc(-c3ccccn3)c(-c3ccc4c(c3)OCO4)[nH]2)cc1	Tyrosine-protein kinase Blk (Homo sapiens)	5.92
CN1CCN(C(=O)c2ccc(NC(=O)Nc3ccc(N(C)c4ccnc(Nc5ccc(CS(C)(=O)=O)cc5)n4)cc3)cc2)CC1	Tyrosine-protein kinase Blk (Homo sapiens)	24.4
NC(=O)c1sc(-n2cnc3ccccc32)cc1OCc1ccccc1Br	Tyrosine-protein kinase Blk (Homo sapiens)	3.7
